# Assayed Target: T1, endothelin A receptor (ETaR) (Homo sapiens (assumed), UniProt P25101)
# T1 construct: endothelin A receptor (ETaR), a GPCR; plasmid and cells were gifts from Gmax Biopharm LLC; also called GPCR; ETaR-expressing CHO cells; source: CHO cells stably expressing and displaying ETaR (provided by Gmax Biopharm LLC); on cells, and in vesicles prepared from them
# T1 sequence (P25101 21-427): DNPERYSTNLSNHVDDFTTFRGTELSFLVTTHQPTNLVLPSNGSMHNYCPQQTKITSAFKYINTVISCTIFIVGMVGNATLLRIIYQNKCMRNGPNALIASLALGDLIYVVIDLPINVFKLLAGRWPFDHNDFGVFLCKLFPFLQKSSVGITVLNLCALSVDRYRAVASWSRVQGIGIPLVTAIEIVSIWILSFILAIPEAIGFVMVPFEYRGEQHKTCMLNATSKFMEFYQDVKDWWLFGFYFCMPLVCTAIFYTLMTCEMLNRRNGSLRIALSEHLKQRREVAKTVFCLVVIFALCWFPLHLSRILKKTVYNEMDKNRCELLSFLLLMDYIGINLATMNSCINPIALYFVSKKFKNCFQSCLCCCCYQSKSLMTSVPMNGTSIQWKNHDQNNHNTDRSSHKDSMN
# Test Protocol: flow cytometry on cells; purified full-length antibodies titrated on ETaR-expressing CHO cells as for scFv; PE-conjugated anti-IgG; Kd from the dose-response curve
# Condition Notes: one partner purified

# Binder, Kd, nM
data = [
    ("anti-GPCR (ETaR) antibody 80H4, full-length, mutant S115N-S30R (antibody, V domains shown, heavy-chain variable region as the heavy chain of m13; heavy-chain constant region as in m13; light-chain variable region as the light chain of m13; light-chain constant region as in m13; source: Expi293F, heavy and light chains co-expressed, purified from supernatant (Protein A); copies: 2 + 2) VH: EVQLLESGGGLVQPGGSLRLSCAASGFTFRSYGMSWVRQAPGKGLEWVSAISTNGATAYYADSVKGRFTISRDNSKNTLYLQMNSLRAEDTAVYYCATEKGAMGYWGQGTLVTVNS VL: DIVMTQTPLSLSVTPGQPASISCRSSQNIVHSTGNTYLEWYLQKPGQSPQLLIYKVSNRFSGVPDRFSGSGSGTDFTLKISRVEAEDVGVYYCFQGSHFPFTFGQGTKVEIK", 10.8),
    ("anti-GPCR (ETaR) antibody 80H4, full-length, mutant S115N-S30R-D73H (antibody, V domains shown, heavy-chain variable region as the heavy chain of m13; heavy-chain constant region as in m13; light-chain variable region as the light chain of m13; light-chain constant region as in m13; also called S115N-D73H-S30R; source: Expi293F, heavy and light chains co-expressed, purified from supernatant (Protein A); copies: 2 + 2) VH: EVQLLESGGGLVQPGGSLRLSCAASGFTFRSYGMSWVRQAPGKGLEWVSAISTNGATAYYADSVKGRFTISRHNSKNTLYLQMNSLRAEDTAVYYCATEKGAMGYWGQGTLVTVNS VL: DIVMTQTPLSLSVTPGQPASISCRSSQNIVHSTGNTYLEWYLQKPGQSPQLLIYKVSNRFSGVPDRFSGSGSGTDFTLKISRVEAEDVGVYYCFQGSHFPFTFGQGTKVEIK", 8.27),
    ("anti-GPCR (ETaR) antibody 80H4, full-length, mutant D73H (antibody, V domains shown, heavy-chain variable region as the heavy chain of m13; heavy-chain constant region as in m13; light-chain variable region as the light chain of m13; light-chain constant region as in m13; source: Expi293F, heavy and light chains co-expressed, purified from supernatant (Protein A); copies: 2 + 2) VH: EVQLLESGGGLVQPGGSLRLSCAASGFTFSSYGMSWVRQAPGKGLEWVSAISTNGATAYYADSVKGRFTISRHNSKNTLYLQMNSLRAEDTAVYYCATEKGAMGYWGQGTLVTVSS VL: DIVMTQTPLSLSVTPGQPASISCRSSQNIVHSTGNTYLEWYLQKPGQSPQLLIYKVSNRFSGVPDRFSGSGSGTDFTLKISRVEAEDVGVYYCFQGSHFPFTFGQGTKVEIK", 13.6),
]
